FYI, the data here is from ChEMBL document CHEMBL1201862.

test system: MCF7; experiment: NCI tumour cell line growth inhibition, 48 h
Activity calls are given as the source filed them. No stated cut-off is given here; in the data, active = GI50 up to about 1.1 µM and inactive = higher.
API: response.call in active, inactive

Problem: # fetch the recorded call for Cn1c2ccccc2n2c3ncccc3c(=S)c(C#N)c12 here
Result: inactive

Problem: # fetch the recorded call for COC12CCCN1c1ccn(Cc3ccccc3)c(=O)c1C2=O (centres undefined) here
Result: inactive

Problem: # fetch the recorded call for N#CCCN(CCC#N)c1ccc(/C=C2\N=C(c3ccccc3)N(c3ccc(C(=O)O)cc3)C2=O)cc1 here
Result: inactive

Problem: # fetch the recorded call for CC1C(c2ccccc2O)c2cc3c(cc2OC1N1CCOCC1)OCO3 (centres undefined) here
Result: inactive

Problem: # fetch the recorded call for COc1ccc2[nH]c3c(c2c1)CC(=O)N1CCCC(CC3O)C1 (centres undefined) here
Result: inactive

Problem: # fetch the recorded call for C[Si](C)(N[Si](C)(C)OCCc1ccccc1)OCCc1ccccc1 here
Result: inactive

Problem: # fetch the recorded call for NS(=O)(=O)c1nn2c(Br)c(-c3ccccc3)nc2s1 here
Result: inactive

Problem: # fetch the recorded call for CN(N=O)c1nc2c(C(N)=O)ncn2s1 here
Result: inactive

Problem: # fetch the recorded call for O=C1CCCCC/C1=C\c1cccc([N+](=O)[O-])c1 here
Result: inactive

Problem: # fetch the recorded call for CCN1CCC(O)(c2ccc(O)cc2)C(C(=O)c2ccc(O)cc2)C1 (centres undefined) here
Result: inactive

Problem: # fetch the recorded call for COC(=O)[C@@H]1CN(C(=O)c2ccccc2)C(=O)N1C(=O)OCc1ccccc1 here
Result: inactive

Problem: # fetch the recorded call for CCC(=O)OCc1ccc2oc(=O)c(C(=O)Oc3cncc(Cl)c3)cc2c1 here
Result: inactive

Problem: # fetch the recorded call for COc1ccc(C(=O)/C=C/c2ccc(OCCSCCCCCCCCCCSCCOc3ccc(/C=C/C(=O)c4ccc(OC)cc4)cc3)cc2)cc1 here
Result: inactive

Problem: # fetch the recorded call for COCCCN1C(=O)C2c3[nH]c4ccccc4c3C3CCC(C(C)(C)C)CC3C2C1=O (centres undefined) here
Result: inactive

Problem: # fetch the recorded call for CCOC(=O)CC[C@H](N)C(=O)N[C@@H](Cc1ccc(N(CCCl)CCCl)cc1)C(=O)OCC here
Result: active

Problem: # fetch the recorded call for C=CCC(CNC(=O)OCc1ccccc1)OC(=O)OCc1ccccc1 (centres undefined) here
Result: inactive

Problem: # fetch the recorded call for Clc1ccc(/C=C/c2nc(-c3ccccc3)cn3c2nc2ccccc23)cc1Cl here
Result: inactive

Problem: # fetch the recorded call for NC1=NC(c2ccc(Cl)cc2)N(c2ccc(S(=O)(=O)Nc3ncccn3)cc2)C(N)=N1 (centres undefined) here
Result: inactive

Problem: # fetch the recorded call for COc1ccc(-n2c3c(c4c(CN(C)C)c(O)ccc42)C(=O)c2ccccc2C3=O)cc1 here
Result: inactive

* * *

system: LOX IMVI; assay: NCI tumour cell line growth inhibition, 48 h
The source made the active and inactive calls. Rule as the data show it: active = GI50 up to about 1.1 µM and inactive = higher.
observable: GI50

Problem: API: value(readout=GI50, system=LOX IMVI) for record COC(O)C(=O)c1c2c(cc3c1CC1(Cc4cc5c(cc4C1)CCC5)C3)CCC2 (stereo unspecified)
Result: 7.13 µM (inactive)

Problem: API: value(readout=GI50, system=LOX IMVI) for record O=C(CP(=O)(O)O)c1cccs1
Result: > 100 µM (inactive)

Problem: API: value(readout=GI50, system=LOX IMVI) for record O=C(Cn1c(=O)ccn(C2OC(CO)C(O)C2F)c1=O)c1ccc(F)cc1 (stereo unspecified)
Result: > 100 µM (inactive)

Problem: API: value(readout=GI50, system=LOX IMVI) for record C#CC[N+](C)(CC#C)CC#C
Result: > 100 µM (inactive)

Problem: API: value(readout=GI50, system=LOX IMVI) for record CCOC(=S)SC/C(=N\OC(C)(C)OC)c1ccccc1
Result: 16.3 µM (inactive)

Problem: API: value(readout=GI50, system=LOX IMVI) for record COC12CCCN1c1ccn(Cc3ccccc3)c(=O)c1C2=O (stereo unspecified)
Result: > 100 µM (inactive)

Problem: API: value(readout=GI50, system=LOX IMVI) for record CCOC(=O)CC(=O)C(=O)NN=C1NCCCN1
Result: > 100 µM (inactive)

Problem: API: value(readout=GI50, system=LOX IMVI) for record COc1cc(/C=C/C=C2\CCC/C(=C\C=C\c3ccc(O)c(OC)c3)C2=O)ccc1O
Result: 7.91 µM (inactive)

Problem: API: value(readout=GI50, system=LOX IMVI) for record N#Cc1[nH]c(=O)n(-c2cccc3ccccc23)c1N
Result: > 10 µM (inactive)

Problem: API: value(readout=GI50, system=LOX IMVI) for record COc1ccc(/C=N/NS(=O)(=O)c2ccc(/C=C3\NC(=O)NC3=O)cc2)cc1
Result: > 100 µM (inactive)

Problem: API: value(readout=GI50, system=LOX IMVI) for record O=[N+]([O-])CC(SCc1ccccc1)c1ccc2c(c1)OCO2 (stereo unspecified)
Result: 1.56 µM (inactive)
